protection from apoptosis values, listed per item
Assay: inhibitors of cytokine-induced beta cell apoptosis, primary screen, luminescence (AID 435005);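 also: 0% = cytokine-treated negative control wells and 100% = positive control rescue; higher means more ATP so stronger rescue from cytokine killing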
Conditions: INS-1E cytokine-induced death, ATP luminescence, 48 h; stronger effect = higher value; percent of positive-control rescue, neutral wells zero; concentration not given here
About 2,400 (0.8%) of roughly 300,000 compounds were called active. The entries come from a sample that favours actives as a whole.
Property name: protection from apoptosis (%)

[[record]]
structure_smiles_string = "CC(=O)NC(=S)Nc1ccc(NC(=O)c2cccnc2)cc1"
property_name = "protection from apoptosis"
unit_symbol = "%"
measured_value = -1.43

[[record]]
structure_smiles_string = "C/C(N)=C(/C#N)C(=O)COC(=O)c1cc(-c2ccc(C)cc2)nc2ccccc12"
property_name = "protection from apoptosis"
unit_symbol = "%"
measured_value = 80.7

[[record]]
structure_smiles_string = "C/C(N)=C(/C#N)C(=O)COC(=O)c1cc(-c2cccc(Br)c2)nc2ccccc12"
property_name = "protection from apoptosis"
unit_symbol = "%"
measured_value = -5.26

[[record]]
structure_smiles_string = "CSc1nc(-c2ccccc2)nc(C(Cl)Cl)n1"
property_name = "protection from apoptosis"
unit_symbol = "%"
measured_value = 105

[[record]]
structure_smiles_string = "OCCNc1nc(Nc2ccc(Cl)c(Cl)c2)nc2ccccc12"
property_name = "protection from apoptosis"
unit_symbol = "%"
measured_value = 89.8

[[record]]
structure_smiles_string = "O=C1N[C@H](Cc2c[nH]c3ccccc23)COC(=O)[C@H](Cc2ccc(F)cc2)C/C=C\\C[C@H]1CC(=O)N(CCO)Cc1ccccc1"
property_name = "protection from apoptosis"
unit_symbol = "%"
measured_value = -0.37

[[record]]
structure_smiles_string = "CCCCN(C(=O)C1=NN(c2cc(C)ccc2C)C(=O)CC1)c1c(N)n(CCC)c(=O)[nH]c1=O"
property_name = "protection from apoptosis"
unit_symbol = "%"
measured_value = 1.47

[[record]]
structure_smiles_string = "C/C(N)=C(/C#N)C(=O)COC(=O)c1cc(-c2ccccc2)nc2ccc(Br)cc12"
property_name = "protection from apoptosis"
unit_symbol = "%"
measured_value = 7.58

[[record]]
structure_smiles_string = "CN(c1ccccc1)S(=O)(=O)c1cccc(NC(=O)Cc2ccc(Cl)cc2)c1"
property_name = "protection from apoptosis"
unit_symbol = "%"
measured_value = 14.2

[[record]]
structure_smiles_string = "Cc1ccc2nc(-c3ccc(NC(=O)c4cccnc4)cc3)oc2c1"
property_name = "protection from apoptosis"
unit_symbol = "%"
measured_value = 106


// provenance: PubChem BioAssay AID435005
